- measuredTarget: rat CRHR2 (endogenous on A7r5 cells) (rat, UniProt P47866 20-411)
- Sequence (P47866 20-411): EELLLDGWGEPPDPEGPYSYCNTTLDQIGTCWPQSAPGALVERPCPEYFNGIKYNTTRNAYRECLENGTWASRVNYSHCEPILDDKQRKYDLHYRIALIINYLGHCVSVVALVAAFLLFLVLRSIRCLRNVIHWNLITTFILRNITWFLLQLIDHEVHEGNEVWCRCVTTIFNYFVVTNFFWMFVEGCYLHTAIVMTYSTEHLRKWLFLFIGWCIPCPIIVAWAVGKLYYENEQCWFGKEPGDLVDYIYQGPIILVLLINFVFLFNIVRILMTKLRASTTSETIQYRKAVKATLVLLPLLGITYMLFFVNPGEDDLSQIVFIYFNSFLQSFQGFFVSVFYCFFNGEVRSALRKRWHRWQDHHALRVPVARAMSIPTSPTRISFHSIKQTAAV
- assayNotes: cell-based or functional assay
*1 amine or outer side, *2 acyl side, *3 side chain or, on linkers, in order; H or OH if unused. Where no end group is shown, it is not given here. Side-chain parts run from the residue outwards. [ ]: non-standard residue; d: D form. The star is where a group is joined. C20 diacid = O=C(O)CCCCCCCCCCCCCCCCCCC(=O)*; γGlu = O=C(O)[C@H](CCC(=O)[*:2])N[*:1]; εLys = N[C@@H](CCCCN[*:1])C(=O)[*:2]; NMeI = CC[C@H](C)[C@H](NC)C(=O)O; pGlu = O=C1CC[C@@H](C(=O)O)N1; αMeL = CC(C)C[C@](C)(N)C(=O)O; AEEA = NCCOCCOCC(=O)O; Aib = CC(C)(N)C(=O)O
Lab note: anything with A7r5 cAMP EC50 below 500 pM is marked criterion met; values at 500 pM or higher are marked criterion not met.

Solved cases (8 shown):
{"binder": "Ac-IVTS[αMeL]D[dV]PTG[αMeL]LQIKLEQERAEKARQQAKENTEILAQV-NH2 (not fully specified (residue 29)) [polypeptide comprising SEQ ID NO:29]", "assignedLabel": "criterion met"}
{"binder": "[NMeI]VLSLDVPIGLLQILLEQEKQEKEKQQAKTNAQILAQV-NH2 (not fully specified (residue 29)) [Reference compound SEQ ID NO:54]", "assignedLabel": "criterion met"}
{"binder": "[NMeI]VTSLDVPIG[αMeL]LQKLIEQEKQEKEKQQAKENTEILAQV-NH2 (not fully specified (residue 29)) [polypeptide comprising SEQ ID NO:49]", "assignedLabel": "criterion met"}
{"binder": "Ac-GSPSIVTS[αMeL]DVPT[Aib][αMeL]LQKILEQERAEKARQQAK([γGlu-AEEA-εLys-C20 diacid])EAAEILAQV-NH2 [polypeptide comprising SEQ ID NO:1]", "assignedLabel": "criterion met"}
{"binder": "Ac-PPPIVTS[αMeL]D[dV]PT[Aib][αMeL]LQKLLEQERAEKARQQAK([γGlu-AEEA-εLys-C20 diacid])EAAEILAQV-NH2 [polypeptide comprising SEQ ID NO:47]", "assignedLabel": "criterion not met"}
{"binder": "Ac-PPPIVTS[αMeL]DVPT[Aib][αMeL]LQKLLEQERAEKARQQAK([γGlu-AEEA-εLys-C20 diacid])EAAEILAQV-NH2 [polypeptide comprising SEQ ID NO:48]", "assignedLabel": "criterion not met"}
{"binder": "Ac-PPPIVTS[αMeL]D[dV]PT[Aib][αMeL]LQK[Aib]LEQERAEKARQQAK([γGlu-AEEA-εLys-C20 diacid])ENTEILAQV-NH2 [polypeptide comprising SEQ ID NO:46]", "assignedLabel": "criterion met"}
{"binder": "[γGlu]GSPSIVTS[αMeL]DVPT[Aib][αMeL]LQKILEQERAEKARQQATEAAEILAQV-NH2 (not fully specified (residue 1, N-terminus); also: Glu1 linked through its gamma-carboxyl to Gly2) [polypeptide comprising SEQ ID NO:25]", "assignedLabel": "criterion met"}

q: Report whether reported A7r5 cAMP EC50 is lower than 500 pM (strictly) for [NMeI]VTSLDVPIG[αMeL]LQKLLEQERAEKARQQAKEAAEILAQV-NH2 (not fully specified (residue 29)) [polypeptide comprising SEQ ID NO:50]
a: criterion not met

q: I wonder whether Ac-GSPSIVTS[αMeL]DVPT[Aib][αMeL]LQKLLEQERAEKARQQAK([γGlu-AEEA-εLys-C20 diacid])EAAEILAQV-NH2 [polypeptide comprising SEQ ID NO:2] has A7r5 cAMP EC50 below 500 pM. Can you tell?
a: criterion not met

q: # strict comparison: is reported A7r5 cAMP EC50 < 500 pM? input = [pGlu]GSPSGIVTS[αMeL]DVPT[Aib][αMeL]LQKILEQERAEKARQQAK([γGlu-AEEA-εLys-C20 diacid])EAAEILAQV-NH2 [polypeptide comprising SEQ ID NO:22]
a: criterion met
